Listing of recorded Emax by entry.
Molecular target: human mGluR5 (Homo sapiens, UniProt P41594)
Sequence (P41594 21-1180 isoform P41594-2 limits assumed): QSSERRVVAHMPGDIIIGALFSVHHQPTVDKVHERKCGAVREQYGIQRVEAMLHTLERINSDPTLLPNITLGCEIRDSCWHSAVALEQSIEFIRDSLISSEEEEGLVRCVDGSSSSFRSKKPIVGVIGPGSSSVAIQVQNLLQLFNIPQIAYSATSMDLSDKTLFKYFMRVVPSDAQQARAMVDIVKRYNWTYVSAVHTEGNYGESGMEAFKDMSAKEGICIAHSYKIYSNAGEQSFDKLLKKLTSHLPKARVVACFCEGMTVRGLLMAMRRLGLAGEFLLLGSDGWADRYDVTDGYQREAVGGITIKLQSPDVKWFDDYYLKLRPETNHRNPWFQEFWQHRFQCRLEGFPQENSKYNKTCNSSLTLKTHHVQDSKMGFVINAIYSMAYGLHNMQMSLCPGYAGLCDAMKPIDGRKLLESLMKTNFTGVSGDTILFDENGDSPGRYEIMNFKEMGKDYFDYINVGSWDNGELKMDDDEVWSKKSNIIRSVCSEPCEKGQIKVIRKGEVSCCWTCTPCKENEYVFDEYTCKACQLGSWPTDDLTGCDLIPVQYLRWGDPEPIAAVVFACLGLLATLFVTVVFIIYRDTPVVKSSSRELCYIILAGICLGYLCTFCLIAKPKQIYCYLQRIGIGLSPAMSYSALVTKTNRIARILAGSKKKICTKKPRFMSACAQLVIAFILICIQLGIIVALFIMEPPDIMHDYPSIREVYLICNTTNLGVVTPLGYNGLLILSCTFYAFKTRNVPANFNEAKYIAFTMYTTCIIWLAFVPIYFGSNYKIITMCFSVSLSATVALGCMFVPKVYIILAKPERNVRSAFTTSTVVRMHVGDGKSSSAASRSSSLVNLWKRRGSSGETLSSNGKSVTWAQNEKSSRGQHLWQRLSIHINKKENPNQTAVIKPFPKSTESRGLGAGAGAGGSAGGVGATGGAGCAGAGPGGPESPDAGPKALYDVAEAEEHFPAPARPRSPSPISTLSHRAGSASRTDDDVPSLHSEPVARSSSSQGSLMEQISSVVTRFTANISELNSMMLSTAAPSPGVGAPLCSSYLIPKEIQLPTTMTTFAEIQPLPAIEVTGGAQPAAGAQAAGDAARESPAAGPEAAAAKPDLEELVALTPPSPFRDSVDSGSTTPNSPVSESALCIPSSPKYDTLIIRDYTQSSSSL
Experiment: Cell-based functional Ca2+ mobilization assay (FDSS), potentiation of glutamate EC20 response
Conditions: H10H cell-line (HEK, recombinant human mGluR5); glutamate EC20; maximum average response at a single concentration, percent of maximal glutamate response
Description: Human mGluR5a cDNA in pCMV6-XL6 mammalian expression plasmid was purchased from OriGene Technologies, Inc. (catalogue number SC326357) and subcloned into pcDNA3.1(−). […] After establishment of a fluorescence baseline for about 3 seconds, the compounds of the present invention were added to the cells, and the response in cells was measured. […] Calcium fluorescence measures were recorded as fold over basal fluorescence; raw data was then normalized to the maximal response to glutamate. […]
recorded_metric: Emax (%)

compound	val
Cc1nccc(CN2CCn3nc(COc4ccccc4)cc3C2=O)n1 [Example B84]	70
Cc1cccc(CN2CCn3nc(COc4ccccc4)cc3C2=O)c1 [Example B64]	61
Cc1cc(CN2CCn3nc(COc4ccccc4)cc3C2=O)no1 [Example B89]	66
COc1cccc(CN2CCn3nc(COc4ccccc4)cc3C2=O)c1 [Example B36]	65
Cc1cccc(CN2CCn3nc(COc4ccccc4)cc3C2=O)n1 [Example B3]	68
O=C1c2cc(COc3ccccc3)nn2CCN1Cc1ccccn1 [Example B17]	69.5
Cc1ccnc(OCc2cc3n(n2)CCN(Cc2ccccc2)C3=O)c1 [Example B62]	39
O=C1c2cc(COc3ccccc3F)nn2CCN1Cc1ccccc1 [Example B69]	69
O=C1c2cc(COc3ccccc3)nn2CCN1Cc1nc2ccccc2o1 [Example B92]	65
